Assay: growth inhibition, single agent or in combination, cell-based, chromothripsis tumors, cisplatin or BGB combos (AID 1671449);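 note: cells exposed for 96 hours; 0% = vehicle DMSO and 100% = killing by high DMSO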
Conditions: LFS_MB_P medulloblastoma cells, measured here: combination with BGB IC40, at 0.005 µM
Classification field: condition met = inhibition at or over -30%; condition not met = inhibition under -30%.

Task item: Does inhibition meet or surpass -30% for Nc1nc(=S)c2[nH]cnc2[nH]1 ?
Reply: condition not met

Task item: Does the compound O=C(O)P(=O)(O)O have recorded inhibition that is -30% or more?
Reply: condition met

Task item: inhibition >= -30% for C[C@H]1COc2c(C3(N)CC3)c(F)cc3c(=O)c(C(=O)O)cn1c23 ?
Reply: condition met

Task item: # check: inhibition of Cc1nc2ccc(CN(C)c3ccc(C(=O)N[C@@H](CCC(=O)O)C(=O)O)s3)cc2c(=O)[nH]1 is greater than or equal to -30%
Reply: condition not met

Task item: // inclusive: inhibition at least -30%? input: Nc1[nH]c(=O)ncc1F
Reply: condition met

Task item: # check: inhibition of CCN1CCN(c2cc3c(cc2F)c(=O)c(C(=O)O)cn3C2CC2)CC1 is greater than or equal to -30%
Reply: condition met

###

Experiment: MELAS cybrid and Rieske KO viability enhancers – cell-based, MELAS cybrids, Rieske KO mouse fibroblasts, CellTiter-Glo, primary screen (AID 1508586);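 note: z relative to plate mean and SD of compound and empty wells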
Conditions: MELAS cybrid survival, low glucose, CellTiter-Glo 48 h; stronger effect = higher value
Measured Attribute: z-score
Give the figure by itself; no unit, no explanation.

Task item: Give its z-score value. Item: CC(=O)Nc1ccccc1
Reply: -0.316

Task item: Requested read-out: z-score. Entry: O=C(O)CCNC(=O)c1ccccc1
Reply: -0.217

Task item: GET /values?readout=z-score&item= CC1(C)O[C@@H]2C[C@H]3[C@@H]4C[C@H](F)C5=CC(=O)CC[C@]5(C)[C@H]4[C@@H](O)C[C@]3(C)[C@]2(C(=O)CO)O1
Reply: -0.21

Task item: Look up z-score: O=C(O)CSCC(=O)NC1CCSC1=O (configuration not stated)
Reply: -0.199

Task item: Could you share which z-score value was measured for O=C(Cn1ccnc1[N+](=O)[O-])NCCO ?
Reply: -0.801

Task item: What z-score value was documented for this molecule, CNC[C@H](O)c1cccc(O)c1 ?
Reply: -0.327

Task item: What z-score value was documented for this molecule, C[N+]12CCC(CC1)C(OC(=O)C(O)(c1ccccc1)c1ccccc1)C2 (configuration not stated) ?
Reply: 0.605

Task item: If you can, please state the reported z-score value of CCCCC1C(=O)N(c2ccccc2)N(c2ccc(O)cc2)C1=O (configuration not stated) .
Reply: -1.46

Task item: Bench note: what z-score did CCCCC(CC)CN=C(N)NC(N)=NCCCCCCN=C(N)NC(N)=NCC(CC)CCCC (configuration not stated) show?
Reply: -2.81

Task item: Please report the recorded z-score for Nc1ncnc2nc[nH]c12 .
Reply: -0.543

Task item: Can you look up the measured z-score of Cc1c(N(C)CS(=O)(=O)O)c(=O)n(-c2ccccc2)n1C for me?
Reply: -1.12

Task item: Recorded z-score for COc1cc2c(Nc3ccc(Br)cc3F)ncnc2cc1OCC1CCN(C)CC1 , please?
Reply: -0.0745

###

System: F380Y/beta1
Test: BK channel mutant inhibitors and activators – cell-based, U2OS BacMam, thallium flux, beta subunits, selectivity assay, profiling panel (AID 1259406);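 note: initial slope of Thallos dye fluorescence rise after thallium is added; log ratio against the mean of 0.3% DMSO vehicle wells on the same plate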
Details: U2OS BacMam BK variants, at 30 µM
Calls of active or inactive are those of the source.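 Rule for the calls: active = thallium flux through the channel raised or lowered by more than 3 SD from vehicle-only wells, actives on both sides; inactive = the rest.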
The categories you may choose from are active, inactive

Task item: // param item: CC(=O)NS(=O)(=O)c1ccc(N)cc1 ; yields the recorded call
Reply: inactive

Task item: Status in this test for CC(C)(C)C(O)/C=C/c1ccc2c(c1)OCO2 (stereo unspecified) ?
Reply: active

Task item: Dear all, I need the recorded test outcome for CC[N+](C)(CC)CCOC(=O)C(O)(c1ccccc1)C1CCCCC1 (stereo unspecified) , thank you.
Reply: inactive

Task item: Test call, this molecule: Cc1cnc(NC(=O)C2=C(O)c3ccccc3S(=O)(=O)N2C)s1
Reply: inactive

Task item: // outcome(item) with item = NCC1CCC(C(=O)Oc2ccc(CCC(=O)O)cc2)CC1 (stereo unspecified)
Reply: inactive

Task item: For CCN1CC(CCN2CCOCC2)C(c2ccccc2)(c2ccccc2)C1=O (stereo unspecified) , which call appears in the assay record?
Reply: inactive

Task item: Could you kindly confirm the outcome this assay logged for O=C1CCc2ccc(OCCCCN3CCN(c4cccc(Cl)c4Cl)CC3)cc2N1 ?
Reply: inactive

Task item: Could you check what this test reported for COc1cc(C)nc(-n2nc(C)cc2OC)n1 ?
Reply: inactive

Task item: Answer briefly: the call reported for COc1cc(C(=O)NC2CCCNC2)cc(OC)c1OC (stereo unspecified) in this assay.
Reply: inactive

Task item: Lab log entry: C[C@]12C[C@H](O)[C@H]3[C@@H](CCC4=CC(=O)CC[C@@]43C)[C@@H]1CC[C@@H]2C(=O)CO — outcome as called in the assay?
Reply: inactive

Task item: Could you check what this test reported for CC(N)C12CC3CC(CC(C3)C1)C2 (stereo unspecified) ?
Reply: inactive
